System: 817829-284-R-J1-PDC complex spheroid viability;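 also: spheroids exposed to compounds for 7 days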
RUN DESCRIPTION: Anticancer human tumor 817829-284-R-J1-PDC patient-derived colon adenocarcinoma cell line growth inhibition [POLQ]; active = viability on the fitted dose curve at most 10% of control; inactive = the rest
ASSAY CONTEXT: second compound 1 µM; first compound 0.316 µM
Outcomes: active, inactive

>  <COMPOUND>
C#Cc1c(F)ccc2cc(O)cc(-c3ncc4c(N5CC6CCC(C5)N6)nc(OCC56CCCN5CC(F)C6)nc4c3F)c12 (stereo unspecified) + COC1C(OC(N)=O)C(O)C(Oc2ccc3c(O)c(NC(=O)c4ccc(O)c(CC=C(C)C)c4)c(=O)oc3c2C)OC1(C)C

>  <GROUP>
inactive

$$$$
>  <COMPOUND>
CC1COCCN1c1cc(C2(S(C)(=N)=O)CC2)nc(-c2ccnc3[nH]ccc23)n1 (stereo unspecified) + Cc1cccc(N(C)C(=O)C2C(O)CCN2c2nc(C)cc(C(F)(F)F)c2C#N)c1

>  <GROUP>
inactive

$$$$
>  <COMPOUND>
O=c1[nH]cc(F)c(=O)[nH]1 + Nc1ccc(C#CCN(C(=O)Cc2ncc(C(F)(F)F)cc2C(F)(F)F)c2ccc(F)cc2)nn1

>  <GROUP>
inactive

$$$$
>  <COMPOUND>
CNCc1ccc(-c2[nH]c3cc(F)cc4c3c2CCNC4=O)cc1 + Cc1cccc(N(C)C(=O)C2C(O)CCN2c2nc(C)cc(C(F)(F)F)c2C#N)c1

>  <GROUP>
inactive

$$$$
>  <COMPOUND>
CCCS(=O)(=O)Nc1ccc(F)c(C(=O)c2c[nH]c3ncc(-c4ccc(Cl)cc4)cc23)c1F + Nc1ccc(C#CCN(C(=O)Cc2ncc(C(F)(F)F)cc2C(F)(F)F)c2ccc(F)cc2)nn1

>  <GROUP>
inactive

$$$$
>  <COMPOUND>
Nc1ccn(C2OC(CO)C(O)C2(F)F)c(=O)n1 (stereo unspecified) + Cc1cccc(N(C)C(=O)C2C(O)CCN2c2nc(C)cc(C(F)(F)F)c2C#N)c1

>  <GROUP>
active

$$$$
>  <COMPOUND>
O=C(c1cc(Cc2n[nH]c(=O)c3ccccc23)ccc1F)N1CCN(C(=O)C2CC2)CC1 + Nc1ccc(C#CCN(C(=O)Cc2ncc(C(F)(F)F)cc2C(F)(F)F)c2ccc(F)cc2)nn1

>  <GROUP>
inactive

$$$$
>  <COMPOUND>
COc1cccc(OCCCN)c1-c1cc(Nc2cnc(C#N)cn2)n[nH]1 + Nc1ccc(C#CCN(C(=O)Cc2ncc(C(F)(F)F)cc2C(F)(F)F)c2ccc(F)cc2)nn1

>  <GROUP>
active

$$$$
>  <COMPOUND>
O=C(Nc1ccc(O)c(NS(=O)(=O)c2ccc(F)cc2)c1)c1ccc(-c2ccccc2)cc1 + Nc1ccc(C#CCN(C(=O)Cc2ncc(C(F)(F)F)cc2C(F)(F)F)c2ccc(F)cc2)nn1

>  <GROUP>
inactive

$$$$
>  <COMPOUND>
COc1cccc2c1C(=O)c1c(O)c3c(c(O)c1C2=O)CC(O)(C(=O)CO)CC3OC1CC(N)C(O)C(C)O1 (stereo unspecified) + Cc1cccc(N(C)C(=O)C2C(O)CCN2c2nc(C)cc(C(F)(F)F)c2C#N)c1

>  <GROUP>
active

$$$$
>  <COMPOUND>
CNCc1ccc(-c2[nH]c3cc(F)cc4c3c2CCNC4=O)cc1 + COC1C(OC(N)=O)C(O)C(Oc2ccc3c(O)c(NC(=O)c4ccc(O)c(CC=C(C)C)c4)c(=O)oc3c2C)OC1(C)C

>  <GROUP>
inactive

$$$$
